PROCEDURE_TEXT: NCI Yeast Anticancer Drug Screen. Data for the mlh1 rad18 strain (AID 175)
APPLIED_CONDITIONS: S. cerevisiae mlh1 rad18 strain growth inhibition; at 50.0 µM (retest, dose inferred, filed as 5.0)
The panel holds about 79,000 compounds, 15% with a hit somewhere; the sample as a whole holds those more often. The source made the active and inactive calls. Rule as the data show it: active = growth inhibition above about 70%; inactive = the rest.
Classes used: true (1) (active), false (0) (inactive)

{"columns": ["MOLECULE", "CATEGORY"],
 "data": [
  ["CNCC(O)c1ccc(O)c(O)c1.[Pt].c1ccc([PH+](c2ccccc2)c2ccccc2)cc1.c1ccc([PH+](c2ccccc2)c2ccccc2)cc1", "true (1)"],
  ["COc1ccc2c3c(c4cc(OC)c(OC)cc4c2c1)C[C@H]1CCCCN1C3", "true (1)"],
  ["C/C=C(\\C)C(=O)OC1C(C)=C2C(C1OC(=O)CCCCC)C(C)(OC(C)=O)CC(OC(=O)CCC)C1(O)C2OC(=O)C1(C)O (stereo unspecified)", "true (1)"],
  ["N#CC(C#N)=Cc1ccc([N+](=O)[O-])s1", "true (1)"],
  ["O=C(CI)NCc1ccccc1", "true (1)"],
  ["CCC1(O)C(=O)OCc2c1cc1n(c2=O)Cc2cc3ccc(C#N)cc3nc2-1 (stereo unspecified)", "false (0)"]
]}

Reference for the values: PubChem BioAssay (NCI)
